All figures here come from ChEMBL document CHEMBL3272292.

tested on: Rattus norvegicus; assay: Antiinflammatory activity in immature rat assessed as inhibition of cantharidin-induced inflammation at 800 ug administered topically to outer surface of ear after 72 hrs relative to control; type: functional
Recorded inhibition (INH) values for a group of compounds are listed next.
// note: answer is a bare numeric in %

Worked examples, 5 compounds total:
[[record]]
compound = "NCCN[C@@H](c1ccc(Cl)cc1)[C@@H](O)c1ccccc1 (racemic)"
measurement_unit = "%"
experimental_value = 89

[[record]]
compound = "CC(C)=NCCN[C@@H](c1ccccc1)[C@@H](O)c1ccccc1 (relative stereo)"
measurement_unit = "%"
experimental_value = 87

[[record]]
compound = "CN(C)CCCN[C@@H](c1ccccc1)[C@@H](O)c1ccccc1 (racemic)"
measurement_unit = "%"
experimental_value = 32

[[record]]
compound = "O[C@@H](c1ccccc1)[C@@H](NCCN[C@@H](c1ccccc1)[C@@H](O)c1ccccc1)c1ccccc1"
measurement_unit = "%"
experimental_value = 0

[[record]]
compound = "NCCN[C@@H](c1ccc(Cl)cc1)[C@@H](O)c1ccc(Cl)cc1 (racemic)"
measurement_unit = "%"
experimental_value = 17


### Prompt I'd like to know its inhibition (INH). The compound in question is NCCCCN[C@@H](c1ccccc1)[C@@H](O)c1ccccc1 (racemic)
### Response 87

### Prompt I'd like to know its inhibition (INH). The compound in question is NCCN[C@@H](c1ccccc1)[C@@H](O)c1ccc(Cl)cc1 (racemic)
### Response 90

### Prompt I'd like to know its inhibition (INH). The compound in question is CC(=O)NCCN(C(C)=O)[C@@H](c1ccccc1)[C@@H](O)c1ccccc1 (racemic)
### Response 40

### Prompt I'd like to know its inhibition (INH). The compound in question is NCCCN[C@@H](c1ccccc1)[C@@H](O)c1ccccc1 (racemic)
### Response 51

### Prompt I'd like to know its inhibition (INH). The compound in question is CNCCN[C@@H](c1ccccc1)[C@@H](O)c1ccccc1 (racemic)
### Response 26

### Prompt I'd like to know its inhibition (INH). The compound in question is NCCNC(c1ccccc1)C(O)c1ccccc1 (single isomer, unassigned; (+))
### Response 96

### Prompt I'd like to know its inhibition (INH). The compound in question is Cc1ccc([C@H](O)[C@@H](NCCN)c2ccccc2)cc1 (racemic)
### Response 68

### Prompt I'd like to know its inhibition (INH). The compound in question is NCCNC(c1ccccc1)C(O)c1ccccc1 (stereo in doubt; 8a)
### Response 87

### Prompt I'd like to know its inhibition (INH). The compound in question is CC(=O)NCCN(C(C)=O)[C@@H](c1ccccc1)[C@@H](OC(C)=O)c1ccccc1 (racemic)
### Response 0

### Prompt I'd like to know its inhibition (INH). The compound in question is CN(C)CCN[C@@H](c1ccccc1)[C@@H](O)c1ccccc1 (racemic)
### Response 0

### Prompt I'd like to know its inhibition (INH). The compound in question is NCCN[C@@H](c1ccccc1)[C@@H](O)c1ccccc1 (racemic)
### Response 88

* * *

tested on: Rattus norvegicus; experiment: Antiinflammatory activity in immature rat assessed as inhibition of cantharidin-induced inflammation at 800 ug administered topically to outer surface of ear after 72 hrs relative to control; type: functional
Recorded inhibition (INH) values for a group of compounds are listed next.
// note: answer is a bare numeric in %

Worked examples, 2 compounds total:
[[record]]
compound = "CC(=O)NCCN[C@@H](c1ccccc1)[C@@H](O)c1ccccc1 (racemic)"
measurement_unit = "%"
experimental_value = 5

[[record]]
compound = "NCCN[C@@H](c1ccccc1)[C@H](O)c1ccccc1 (racemic)"
measurement_unit = "%"
experimental_value = 88


Consider now this further compound.
### Prompt # value lookup — system Rattus norvegicus, readout inhibition (INH), item CN(CCN)[C@@H](c1ccccc1)[C@@H](O)c1ccccc1 (racemic)
### Response 41
